Data credit: patent US10562898B2

target: α4β7 integrin (Homo sapiens, UniProt P13612+P26010); construct: a cell line RPMI-8866, which is known to express α4β7 integrin; endogenous in cells; host or cells: RPMI-8866 (human B cell line); test: MAdCAM-1/α4β7 integrin binding inhibitory activity evaluation test (RPMI-8866 cells binding to MAdCAM-1/Fc); assay type: cell-based; settings: recombinant mouse MAdCAM-1/Fc, no serum
quantity: IC50
Number plus unit, in that order.

What value of IC50 has been reported for the following molecule? Cc1c(C)n(C)c(=O)n(-c2ccc(C[C@H](NC(=O)c3cc(F)c(NS(=O)(=O)c4ccc(NC(=O)C5(O)CC5)cc4)cc3F)C(=O)O)cc2)c1=O
0.98 nM

Would you mind doing Cc1c(C)n(C(C)C)c(=O)n(-c2ccc(C[C@H](NC(=O)c3cc(F)c(NS(=O)(=O)c4ccc(NC(=O)C(C)(C)C)cc4)cc3F)C(=O)O)cc2)c1=O as well?
2 nM

Please give the result for Cc1c(C)n(C)c(=O)n(-c2ccc(C[C@H](NC(=O)c3cc(F)c(NS(=O)(=O)c4ccc(NC(=O)C5(C(F)(F)F)CC5)cc4)cc3F)C(=O)O)cc2)c1=O too.
0.25 nM

Further, for Cn1c2c(c(=O)n(-c3ccc(C[C@H](NC(=O)c4cc(F)c(NS(=O)(=O)c5ccc(NC(=O)C(C)(C)C)cc5)cc4F)C(=O)O)cc3)c1=O)COCC2 ?
0.45 nM

Request: Cn1c(=O)n(-c2ccc(C[C@H](NC(=O)c3cc(F)c(NS(=O)(=O)c4ccc(NC(=O)C5CCOCC5)cc4)cc3F)C(=O)O)cc2)c(=O)c2ccncc21
0.38 nM

What about Cn1ccc(=O)n(-c2ccc(C[C@H](NC(=O)c3cc(F)c(NS(=O)(=O)c4ccc(NC(=O)C(C)(C)C)cc4)cc3F)C(=O)O)cn2)c1=O ?
2 nM

How about this molecule: CCC(CC)C(=O)Nc1ccc(S(=O)(=O)Nc2cc(F)c(C(=O)N[C@@H](Cc3ccc(-n4c(=O)c(C)c(C)n(C)c4=O)cc3)C(=O)O)cc2F)cc1
0.85 nM

Another molecule to look at: Cn1c2c(c(=O)n(-c3ccc(C[C@H](NC(=O)c4cc(F)c(NS(=O)(=O)c5ccc(NC(=O)C(C)(C)C)cc5)cc4F)C(=O)O)cn3)c1=O)COCC2
0.48 nM

How about this molecule: Cc1c(C)n(C)c(=O)n(-c2ccc(C[C@H](NC(=O)c3cc(F)c(NS(=O)(=O)c4ccc(NC(=O)C(C)(C)C)cc4)cc3F)C(=O)O)cc2)c1=O
0.33 nM

And what about the molecule Cc1cn(C)c(=O)n(-c2ccc(C[C@H](NC(=O)c3cc(F)c(NS(=O)(=O)c4ccc(NC(=O)C5CCCC5)cc4)cc3F)C(=O)O)cn2)c1=O ?
3.3 nM

Note, next up: Cn1ccc(=O)n(-c2ccc(C[C@H](NC(=O)c3cc(F)c(NS(=O)(=O)c4ccc(NC(=O)C5(C(F)(F)F)CC5)cc4)cc3F)C(=O)O)cn2)c1=O
2.2 nM

---

For each of the compounds below, state its IC50.
Target: α4β7 integrin (Homo sapiens, UniProt P13612+P26010)
Construct: a cell line RPMI-8866, which is known to express α4β7 integrin; endogenous in cells; host or cells: RPMI-8866 (human B cell line)
Sequence (P13612 34-1032): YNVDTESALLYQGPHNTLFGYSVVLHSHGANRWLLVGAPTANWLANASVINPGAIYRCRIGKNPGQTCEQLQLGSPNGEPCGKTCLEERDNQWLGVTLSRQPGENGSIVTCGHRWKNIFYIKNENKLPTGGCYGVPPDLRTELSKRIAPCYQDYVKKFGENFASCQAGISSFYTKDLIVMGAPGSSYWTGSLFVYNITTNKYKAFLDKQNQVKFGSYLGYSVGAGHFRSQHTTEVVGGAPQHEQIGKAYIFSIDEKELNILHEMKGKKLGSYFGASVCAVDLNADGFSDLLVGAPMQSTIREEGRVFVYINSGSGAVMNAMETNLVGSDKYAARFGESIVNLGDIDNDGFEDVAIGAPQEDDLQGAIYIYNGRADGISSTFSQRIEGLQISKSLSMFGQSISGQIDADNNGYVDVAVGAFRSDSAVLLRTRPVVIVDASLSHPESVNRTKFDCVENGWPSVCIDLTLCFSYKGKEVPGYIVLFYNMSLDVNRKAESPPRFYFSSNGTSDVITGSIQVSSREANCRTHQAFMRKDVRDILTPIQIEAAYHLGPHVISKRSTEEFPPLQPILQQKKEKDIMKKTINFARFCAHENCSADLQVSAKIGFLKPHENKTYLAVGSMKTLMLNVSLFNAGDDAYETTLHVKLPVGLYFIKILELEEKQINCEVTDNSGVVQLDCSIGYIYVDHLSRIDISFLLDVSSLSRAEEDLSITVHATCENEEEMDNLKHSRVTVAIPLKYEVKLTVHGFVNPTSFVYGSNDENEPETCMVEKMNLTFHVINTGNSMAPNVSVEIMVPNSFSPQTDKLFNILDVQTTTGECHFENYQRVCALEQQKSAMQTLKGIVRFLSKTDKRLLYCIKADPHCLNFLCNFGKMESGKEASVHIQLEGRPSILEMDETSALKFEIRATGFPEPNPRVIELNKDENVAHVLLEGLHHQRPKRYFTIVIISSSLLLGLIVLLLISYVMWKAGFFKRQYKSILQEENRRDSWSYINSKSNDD
Sequence (P26010 20-798): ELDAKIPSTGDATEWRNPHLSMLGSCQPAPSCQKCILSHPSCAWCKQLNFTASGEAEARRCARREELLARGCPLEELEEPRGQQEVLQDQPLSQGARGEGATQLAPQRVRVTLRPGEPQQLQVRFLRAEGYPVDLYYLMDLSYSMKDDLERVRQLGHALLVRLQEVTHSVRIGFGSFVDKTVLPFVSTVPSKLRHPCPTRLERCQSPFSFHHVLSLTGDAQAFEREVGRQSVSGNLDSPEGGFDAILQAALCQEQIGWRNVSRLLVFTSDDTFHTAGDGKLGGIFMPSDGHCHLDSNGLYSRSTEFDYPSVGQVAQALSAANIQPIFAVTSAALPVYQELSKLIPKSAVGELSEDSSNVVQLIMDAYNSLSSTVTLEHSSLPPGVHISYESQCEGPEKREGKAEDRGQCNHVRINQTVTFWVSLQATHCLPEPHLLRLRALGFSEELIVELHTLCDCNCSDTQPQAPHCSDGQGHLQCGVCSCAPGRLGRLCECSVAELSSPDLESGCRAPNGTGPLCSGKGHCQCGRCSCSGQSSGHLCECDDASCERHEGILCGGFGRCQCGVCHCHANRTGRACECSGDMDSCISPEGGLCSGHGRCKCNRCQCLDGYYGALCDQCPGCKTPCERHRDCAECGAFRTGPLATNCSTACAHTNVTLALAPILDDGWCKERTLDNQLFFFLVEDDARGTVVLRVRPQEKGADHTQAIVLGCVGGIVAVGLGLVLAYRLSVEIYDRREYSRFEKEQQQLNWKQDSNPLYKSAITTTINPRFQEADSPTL
Assay: MAdCAM-1/α4β7 integrin binding inhibitory activity evaluation test (RPMI-8866 cells binding to MAdCAM-1/Fc)
Type: cell-based
Conditions: recombinant mouse MAdCAM-1/Fc, no serum

Need IC50 of Cn1c(=O)n(-c2ccc(C[C@H](NC(=O)c3cc(F)c(NS(=O)(=O)c4ccc(NC(=O)C5(O)CC5)cc4)cc3F)C(=O)O)cc2)c(=O)c2ccncc21 , thanks.
1 nM

What do you get for Cn1c2c(c(=O)n(-c3ccc(C[C@H](NC(=O)c4cc(F)c(NS(=O)(=O)c5ccc(NC(=O)C(C)(C)C)cc5)cc4F)C(=O)O)nc3)c1=O)CCCC2 ?
0.74 nM

Param item: Cn1c2c(c(=O)n(-c3ccc(C[C@H](NC(=O)c4cc(F)c(NS(=O)(=O)c5ccc(NC(=O)C(C)(C)C)cc5)cc4F)C(=O)O)cc3)c1=O)CCOC2
0.36 nM

Further, for Cc1c(C)n(C)c(=O)n(-c2ccc(C[C@H](NC(=O)c3cc(F)c(NS(=O)(=O)c4cccc(NC(=O)C(C)(C)C)c4)cc3F)C(=O)O)cc2)c1=O ?
2.9 nM

How about Cn1cnc2c1c(=O)n(-c1ccc(C[C@H](NC(=O)c3cc(F)c(NS(=O)(=O)c4ccc(NC(=O)C(C)(C)C)cc4)cc3F)C(=O)O)cc1)c(=O)n2C ?
0.42 nM
